# System: Plasmodium berghei
# EXPERIMENT_SUMMARY: Screen against P. berghei liver stage (PbLuc), transformed with Luciferase, at 10uM
# Format: functional, HepG2
# CONDITION_LABEL: tested at 10 uM
In all, about 69,000 compounds went through this assay and about 8,600 (12%) showed an effect of 50% or more. This excerpt belongs to a sample that is enriched for strong results.
QUANTITY_KIND: INHIBITION (%)
Express your answer in %, writing the number without its unit.

Enter reported INHIBITION observed with Plasmodium berghei for Cc1nn(C)cc1CN(C)C(=O)c1cccnc1
-13.6

// fetch Plasmodium berghei INHIBITION for Cc1nc(O)cc(CN2C[C@H](NC(=O)C3CCC3)[C@@H](C3CC3)C2)n1
18.9

Param readout= INHIBITION; system= Plasmodium berghei; entry= CCCc1noc(CNC2CCCN(Cc3noc(C4CC4)n3)C2)n1 (stereo not drawn) ; returns value.
-37.7

Entry O=C(c1ccccc1)N1CCC2(CCCN2c2ncccn2)CC1 , system Plasmodium berghei: what INHIBITION was measured?
-22.1

Form field: INHIBITION recorded for COCCN1CCc2ncnc(N(C)C)c2CC1 with Plasmodium berghei (enter value)
33.5

Reported INHIBITION for Plasmodium berghei, given O=C(CC1CCCC1)N[C@H]1CN(Cc2c[nH]cn2)C[C@@H]1C1CC1 ?
45.2

Kindly state the measured INHIBITION obtained for COCC1(C(=O)N[C@H]2CN(c3ccnc(C)c3)C[C@@H]2C2CC2)CCC1 with Plasmodium berghei.
51.3

Missing value: INHIBITION, Plasmodium berghei, entry COCCNC(=O)[C@H]1C[C@@H]2CCN(c3ncccn3)C[C@H]2O1 . Fill in?
-56.7

Item: Cc1n[nH]c(C2CN(CCc3cccs3)CCO2)n1 (stereo not drawn) Test system: Plasmodium berghei Read-out: INHIBITION Value: ?
35.3

Quick check: INHIBITION on Plasmodium berghei, item O=C(Nc1nc2c(s1)CN(S(=O)(=O)C1CC1)CC2)C1CC1 ?
37.9

Find INHIBITION (Plasmodium berghei) for the entry COCCC(=O)N1CCOCC2(CCN(Cc3cccs3)C2)C1 (stereo not drawn)
-5.31

Provide the documented INHIBITION with Plasmodium berghei as the system for COCCOCC(=O)N(Cc1cccc(C)c1)C(C)C
5.94

Value wanted: INHIBITION (Plasmodium berghei) of entry Cc1nn(C)cc1CN(C)C(=O)c1ccccn1
8.7

Form field - read-out: INHIBITION; system: Plasmodium berghei; submitted item: O=C(O)c1cc(N2C[C@H](NC(=O)C3CCOCC3)[C@@H](C3CC3)C2)ccn1
3.68

Plasmodium berghei / INHIBITION / O=C(O)[C@@H]1CN(C(=O)NCC2CCCCC2)C[C@H]1c1ccccn1 : value?
-43.5

Field: INHIBITION (Plasmodium berghei). Entry: CCOc1cc(F)ccc1NC1CCN(CC(F)(F)F)C1=O (stereo not drawn)
-6.51

Fill in the recorded INHIBITION for this compound, with Plasmodium berghei as test system: CC(=O)C(C)CC(=O)N(Cc1cccc(C)c1)C(C)C (stereo not drawn)
68.4

Record CSCC(=O)N1CCCCC1Cn1cc(C)cn1 (stereo not drawn) : what is its INHIBITION with Plasmodium berghei?
-5.25

Quick check: INHIBITION on Plasmodium berghei, item COc1ccc(C(=O)N2CC[C@H](CO)[C@H](O)C2)c(C)c1 ?
16.8

Return INHIBITION measured with Plasmodium berghei given this compound: COCCCn1ccc(NS(=O)(=O)c2cc(C)c(F)cc2F)n1
-15.3

Fill in the recorded INHIBITION for this compound, with Plasmodium berghei as test system: COCCC(=O)N[C@H]1CN(c2nc(C)c3c(n2)CCCC3)C[C@@H]1C1CC1
20.4

Query INHIBITION on Plasmodium berghei for O=C1CC[C@H]2[C@H](CCN2C(=O)c2ccc[nH]2)N1CCN1CCOCC1
-14.4

Provide value of INHIBITION for this record tested with Plasmodium berghei: O=C(c1cccc(-n2cccn2)c1)N1CCCOC(Cn2cccn2)C1 (stereo not drawn)
0.891
